# measuredTarget: SGK2 (Homo sapiens)
# Sequence (Q9HBY8 1-367): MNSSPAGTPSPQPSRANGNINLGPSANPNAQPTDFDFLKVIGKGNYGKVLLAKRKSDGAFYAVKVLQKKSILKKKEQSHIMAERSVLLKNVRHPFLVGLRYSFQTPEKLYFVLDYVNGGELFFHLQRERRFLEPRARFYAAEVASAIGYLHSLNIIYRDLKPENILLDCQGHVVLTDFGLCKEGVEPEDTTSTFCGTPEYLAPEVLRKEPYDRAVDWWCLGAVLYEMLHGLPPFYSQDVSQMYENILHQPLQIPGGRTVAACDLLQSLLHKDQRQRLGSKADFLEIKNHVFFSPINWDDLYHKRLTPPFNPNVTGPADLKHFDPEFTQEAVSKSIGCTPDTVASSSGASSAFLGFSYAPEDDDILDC
# assayProcedure: Off-target kinase panel, ZLYTE: SGK2
# Assay type: biochemical
# conditionLabel: read-out: Estimated IC50 (uM) SGK2
# Description: The activity data was obtained in a panel of 265 and 264 for compounds 1-1 and CC-1, respectively, using the ZLYTE and ADAPTA assay methods indicated in the table below. The ZLYTE biochemical assay employs a fluorescence-based, coupled-enzyme format and is based on the differential sensitivity of phosphorylated and non-phosphorylated peptides to proteolytic cleavage. […] Both cleaved and uncleaved FRET-peptides contribute to the fluorescence signals and therefore to the Emission Ratio. […]
propertyLabel: IC50 (µM)
Field format: number, assumed µM, no unit text.

Req: Missing value: IC50, SGK2 (Homo sapiens), entry `O=C1NC(=O)C2(CCN(c3cc(Cl)cc4[nH]ncc34)CC2)N1` . Fill in?
Resp: 1.3
